The origin of these recorded values is patent US20260297542A1.

target: AtPPO1 S305L G404A Y426V T431R L479N (SEQ ID NO.127) (Arabidopsis thaliana, UniProt P55826, G404A/L479N/S305L/T431R/Y426V); construct: made in house; host or cells: E. coli BL21 (DE3) hemG, crude extract; experiment: fluorescent Protoporphyrinogen Oxidase assay, crude extract; type: biochemical; settings: read-out: percentage inhibition
test readout: inhibition at 1 ppm (%)
The reply should contain only the number, in %.

These recorded examples may help you get a feel for the data.
C#CCN1C(=O)C(F)(F)Oc2cc(F)c(-n3c(=O)n(C)c(=S)n(C)c3=O)cc21 [Herbicide B, trifludimoxazin] | 100
CCOC(=O)[C@]1(C)CC(c2cc(-n3c(=O)n(C)c(=S)n(C)c3=O)c(F)cc2Cl)=NO1 [Herbicide D] | 40
CC(C)N(C)S(=O)(=O)NC(=O)c1cc(-n2c(=O)cc(C(F)(F)F)n(C)c2=O)c(F)cc1Cl [Herbicide E, saflufenacil] | 48
CCOC(=O)COc1ncccc1Oc1cc(-n2c(=O)cc(C(F)(F)F)n(C)c2=O)c(F)cc1Cl [Herbicide A, epyrifenacil] | 45

-- ask Could you tell me which inhibition at 1 ppm is on file for CCOC(=O)C1(C)CC(c2cc(-n3c(=O)cc(C(F)(F)F)n(C)c3=O)c(F)cc2Cl)=NO1 (centres unmarked) [Herbicide C] ?
-- reply 57

----------
target: AtPPO1 S305L Y361C L362F Y426M L479M (SEQ ID NO.134) (Arabidopsis thaliana, UniProt P55826, L479M/S305L/Y361C/Y362F/Y426M); assay: fluorescent Protoporphyrinogen Oxidase assay, crude extract; assay type: biochemical; details: read-out: percentage inhibition
# inhibition at 1 ppm >= 60% gives met, anything below gives not met

// known answers, use as guide
C#CCN1C(=O)C(F)(F)Oc2cc(F)c(-n3c(=O)n(C)c(=S)n(C)c3=O)cc21 [Herbicide B, trifludimoxazin] | met
CCOC(=O)C1(C)CC(c2cc(-n3c(=O)cc(C(F)(F)F)n(C)c3=O)c(F)cc2Cl)=NO1 (centres unmarked) [Herbicide C] | met
CCOC(=O)[C@]1(C)CC(c2cc(-n3c(=O)n(C)c(=S)n(C)c3=O)c(F)cc2Cl)=NO1 [Herbicide D] | not met
CC(C)N(C)S(=O)(=O)NC(=O)c1cc(-n2c(=O)cc(C(F)(F)F)n(C)c2=O)c(F)cc1Cl [Herbicide E, saflufenacil] | not met

API: the following record is the query input.
-- ask Assess whether reported inhibition at 1 ppm for CCOC(=O)COc1ncccc1Oc1cc(-n2c(=O)cc(C(F)(F)F)n(C)c2=O)c(F)cc1Cl [Herbicide A, epyrifenacil] sits at 60% or higher.
-- reply not met

----------
Target: AtPPO1 S305L Y361T V365L T431R L479M (SEQ ID NO.130) (Arabidopsis thaliana, UniProt P55826, L479M/S305L/T431R/V365L/Y361T)
Construct: made in house; host or cells: E. coli BL21 (DE3) hemG, crude extract
Experiment: fluorescent Protoporphyrinogen Oxidase assay, crude extract
Assay type: biochemical
Settings: read-out: percentage inhibition
Method: A pET24 plasmid containing a DNA sequence encoding each identified variant mutant of AtPPO1 derived from Arabidopsis thaliana, codon-optimised for expression in E. coli, and under control of a T7 promoter, was synthesised by Twist Bioscience. […] Protein concentration was measured and calculated using the absorbance at 280 nm. Extracts were diluted 1 in 4 and 10 uL was analysed by SDS PAGE. […]
test readout: inhibition at 10 ppm (%)
The reply should contain only the number, in %.

These recorded examples may help you get a feel for the data.
C#CCN1C(=O)C(F)(F)Oc2cc(F)c(-n3c(=O)n(C)c(=S)n(C)c3=O)cc21 [Herbicide B, trifludimoxazin] | 97
CCOC(=O)C1(C)CC(c2cc(-n3c(=O)cc(C(F)(F)F)n(C)c3=O)c(F)cc2Cl)=NO1 (centres unmarked) [Herbicide C] | 99
CCOC(=O)COc1ncccc1Oc1cc(-n2c(=O)cc(C(F)(F)F)n(C)c2=O)c(F)cc1Cl [Herbicide A, epyrifenacil] | 99
CC(C)N(C)S(=O)(=O)NC(=O)c1cc(-n2c(=O)cc(C(F)(F)F)n(C)c2=O)c(F)cc1Cl [Herbicide E, saflufenacil] | 82

Then there is this compound:
-- ask Could you tell me which inhibition at 10 ppm is on file for CCOC(=O)[C@]1(C)CC(c2cc(-n3c(=O)n(C)c(=S)n(C)c3=O)c(F)cc2Cl)=NO1 [Herbicide D] ?
-- reply 89

----------
biological target: WT (SEQ ID NO.1) AtPPO1 (Arabidopsis thaliana, UniProt P55826); construct: made in house; host or cells: E. coli BL21 (DE3) hemG, crude extract; test: fluorescent Protoporphyrinogen Oxidase assay, crude extract; format: biochemical; details: read-out: percentage inhibition
Examples of molecules with documented inhibition at 1 ppm follow.
The reply should contain only the number, in %.

CCOC(=O)[C@]1(C)CC(c2cc(-n3c(=O)n(C)c(=S)n(C)c3=O)c(F)cc2Cl)=NO1 [Herbicide D] | 90
CCOC(=O)C1(C)CC(c2cc(-n3c(=O)cc(C(F)(F)F)n(C)c3=O)c(F)cc2Cl)=NO1 (centres unmarked) [Herbicide C] | 91

-- ask Could you tell me which inhibition at 1 ppm is on file for CC(C)N(C)S(=O)(=O)NC(=O)c1cc(-n2c(=O)cc(C(F)(F)F)n(C)c2=O)c(F)cc1Cl [Herbicide E, saflufenacil] ?
-- reply 97

-- ask Could you tell me which inhibition at 1 ppm is on file for CCOC(=O)COc1ncccc1Oc1cc(-n2c(=O)cc(C(F)(F)F)n(C)c2=O)c(F)cc1Cl [Herbicide A, epyrifenacil] ?
-- reply 100

-- ask Could you tell me which inhibition at 1 ppm is on file for C#CCN1C(=O)C(F)(F)Oc2cc(F)c(-n3c(=O)n(C)c(=S)n(C)c3=O)cc21 [Herbicide B, trifludimoxazin] ?
-- reply 97

----------
Target: AtPPO1 S305L Y426V L479M (SEQ ID NO.131) (Arabidopsis thaliana, UniProt P55826, L479M/S305L/Y426V)
Construct: made in house; host or cells: E. coli BL21 (DE3) hemG, crude extract
Assay: fluorescent Protoporphyrinogen Oxidase assay, crude extract
Format: biochemical
Details: read-out: percentage inhibition
Protocol: A pET24 plasmid containing a DNA sequence encoding each identified variant mutant of AtPPO1 derived from Arabidopsis thaliana, codon-optimised for expression in E. coli, and under control of a T7 promoter, was synthesised by Twist Bioscience. […] Protein concentration was measured and calculated using the absorbance at 280 nm. Extracts were diluted 1 in 4 and 10 uL was analysed by SDS PAGE. […]
Examples of compounds with documented inhibition at 100 ppm follow.
The reply should contain only the number, in %.

CCOC(=O)[C@]1(C)CC(c2cc(-n3c(=O)n(C)c(=S)n(C)c3=O)c(F)cc2Cl)=NO1 [Herbicide D] | 97
CCOC(=O)C1(C)CC(c2cc(-n3c(=O)cc(C(F)(F)F)n(C)c3=O)c(F)cc2Cl)=NO1 (centres unmarked) [Herbicide C] | 100
C#CCN1C(=O)C(F)(F)Oc2cc(F)c(-n3c(=O)n(C)c(=S)n(C)c3=O)cc21 [Herbicide B, trifludimoxazin] | 100
CC(C)N(C)S(=O)(=O)NC(=O)c1cc(-n2c(=O)cc(C(F)(F)F)n(C)c2=O)c(F)cc1Cl [Herbicide E, saflufenacil] | 87

Then there is this compound:
-- ask Could you tell me which inhibition at 100 ppm is on file for CCOC(=O)COc1ncccc1Oc1cc(-n2c(=O)cc(C(F)(F)F)n(C)c2=O)c(F)cc1Cl [Herbicide A, epyrifenacil] ?
-- reply 100

----------
Target: AtPPO1 Y426M T461Q L479M (SEQ ID NO.132) (Arabidopsis thaliana, UniProt P55826, L479M/T461Q/Y426M)
Construct: made in house; host or cells: E. coli BL21 (DE3) hemG, crude extract
Sequence (P55826 35-537 Y426M/T461Q/L479M): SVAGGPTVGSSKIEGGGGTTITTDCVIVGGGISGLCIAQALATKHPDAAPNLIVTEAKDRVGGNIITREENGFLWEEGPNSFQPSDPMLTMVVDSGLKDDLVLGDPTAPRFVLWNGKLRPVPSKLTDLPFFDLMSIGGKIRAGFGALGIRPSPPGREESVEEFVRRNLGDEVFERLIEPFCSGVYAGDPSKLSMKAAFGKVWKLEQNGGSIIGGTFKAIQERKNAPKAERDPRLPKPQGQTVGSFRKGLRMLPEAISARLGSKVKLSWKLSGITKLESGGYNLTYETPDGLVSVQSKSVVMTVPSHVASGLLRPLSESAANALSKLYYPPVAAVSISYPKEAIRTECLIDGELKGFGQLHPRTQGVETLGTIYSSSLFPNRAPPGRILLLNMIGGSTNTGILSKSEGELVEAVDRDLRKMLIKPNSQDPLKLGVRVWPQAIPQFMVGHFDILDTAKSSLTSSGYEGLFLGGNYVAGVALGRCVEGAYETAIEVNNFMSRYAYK
Experiment: fluorescent Protoporphyrinogen Oxidase assay, crude extract
Type: biochemical
Settings: read-out: percentage inhibition
test readout: inhibition at 1 ppm (%)
The reply should contain only the number, in %.

These recorded examples may help you get a feel for the data.
CCOC(=O)[C@]1(C)CC(c2cc(-n3c(=O)n(C)c(=S)n(C)c3=O)c(F)cc2Cl)=NO1 [Herbicide D] | 79
C#CCN1C(=O)C(F)(F)Oc2cc(F)c(-n3c(=O)n(C)c(=S)n(C)c3=O)cc21 [Herbicide B, trifludimoxazin] | 100
CCOC(=O)C1(C)CC(c2cc(-n3c(=O)cc(C(F)(F)F)n(C)c3=O)c(F)cc2Cl)=NO1 (centres unmarked) [Herbicide C] | 54
CCOC(=O)COc1ncccc1Oc1cc(-n2c(=O)cc(C(F)(F)F)n(C)c2=O)c(F)cc1Cl [Herbicide A, epyrifenacil] | 51

-- ask Could you tell me which inhibition at 1 ppm is on file for CC(C)N(C)S(=O)(=O)NC(=O)c1cc(-n2c(=O)cc(C(F)(F)F)n(C)c2=O)c(F)cc1Cl [Herbicide E, saflufenacil] ?
-- reply 26
